Origin of the recorded values: patent US20220112288A1

Parameter kon: see the listing below.
# System Under Test: T1, Recombinant human CD4 (R&D Systems, Cat. 10327-CD) (human, UniProt P01730 26-390, limits assumed)
# T1 construct: Bought protein; also called huCD4
# Measurement Protocol: BLI (Octet Red 384), non-clonal supernatant captured on AMC sensors, 100 nM human CD4, 1:1 local fit;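 note: hybridoma antibodies from supernatants, one CD4 concentration giving single-point kinetics per supernatant, with curves fitted over both association and dissociation phases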
Answer format: numeric, M⁻¹ s⁻¹ implied, no suffix.

Prompt: # get_value(readout='kon', item= 75110_02I16A (antibody, V domains shown, Tested as non-clonal AlivaMab Mouse hybridoma supernatant (human variable regions and human kappa, mouse Fc); also called ADS75110 non-clonal supernatant 02I16A) VH: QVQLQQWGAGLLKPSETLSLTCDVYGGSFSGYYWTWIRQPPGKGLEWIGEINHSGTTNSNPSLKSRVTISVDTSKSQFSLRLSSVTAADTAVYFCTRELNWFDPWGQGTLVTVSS VL: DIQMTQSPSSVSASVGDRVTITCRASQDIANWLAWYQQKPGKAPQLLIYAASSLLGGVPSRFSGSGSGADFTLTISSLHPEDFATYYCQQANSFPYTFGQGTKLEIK )
Response: 308000
